// provenance: patent US4657897A

# Assayed system: adenosine A1 receptor (Rattus norvegicus)
# Construct: Whole brain minus cerebellum and brainstem from male Long Evans rats
# Sequence (P25099 whole entry): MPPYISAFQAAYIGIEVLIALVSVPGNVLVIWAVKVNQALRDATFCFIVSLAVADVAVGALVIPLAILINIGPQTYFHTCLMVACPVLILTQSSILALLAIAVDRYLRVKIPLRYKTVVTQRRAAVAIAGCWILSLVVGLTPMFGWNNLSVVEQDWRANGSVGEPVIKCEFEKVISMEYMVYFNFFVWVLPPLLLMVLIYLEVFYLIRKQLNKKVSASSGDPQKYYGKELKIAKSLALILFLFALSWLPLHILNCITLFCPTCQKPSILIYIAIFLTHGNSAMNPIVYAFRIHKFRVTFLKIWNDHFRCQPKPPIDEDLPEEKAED
# Measurement notes: Adenosine Receptor Binding--A1 Receptor Affinity (RBA1), [3H]-CHA binding, rat whole brain membranes
# Experimental setup: 1.0 nM [3H]-CHA, 25° C., 1 h
# Method: Adenosine Receptor Binding--A1 Receptor Affinity (RBA1) […] Tissue homogenate (10 mg/ml) was incubated in 0.05M Tris-HCl buffer pH 7.7 containing 1.0 nM [^3 H]-N^6 -cyclohexyladenosine[^3 H]-CHA) with or without test agents in triplicate for one hour at 25° C. […] The radio-labeled ligand retained on the filter was measured by liquid scintillation spectrophotometry after shaking the filters for one hour or longer on a mechanical shaker in 10 ml of Beckman Ready-Solv HP scintillation cocktail. […]
Observable: IC50 (nM)
Numeric answer only, unit nM assumed.

# Molecule, Assayed system, IC50 [nM]
rows = [
    ("CC1(C)O[C@@H]2[C@H](O1)[C@@H](CO)O[C@H]2n1cnc2c(NCC(c3ccccc3)c3ccccc3)ncnc21", "adenosine A1 receptor (Rattus norvegicus)", 242),
    ("OC[C@H]1O[C@@H](n2cnc3c(NCC(O)(c4ccccc4)c4ccccc4)ncnc32)[C@H](O)[C@@H]1O", "adenosine A1 receptor (Rattus norvegicus)", 12),
    ("OC[C@H]1O[C@@H](n2cnc3c(NCC(c4ccccc4)c4ccc(Cl)cc4)ncnc32)[C@H](O)[C@@H]1O (stereo partly drawn)", "adenosine A1 receptor (Rattus norvegicus)", 27),
    ("Nc1nc(NCC(c2ccccc2)c2ccccc2)c2ncn([C@@H]3O[C@H](CO)[C@@H](O)[C@H]3O)c2n1", "adenosine A1 receptor (Rattus norvegicus)", 89),
    ("CC(CNc1ncnc2c1ncn2[C@@H]1O[C@H](CO)[C@@H](O)[C@H]1O)(c1ccccc1)c1ccccc1", "adenosine A1 receptor (Rattus norvegicus)", 66),
]

# context switch: different molecule, same IC50
// query Please give the measured IC50 for this molecule: Nc1nc(NCC(c2ccccc2)c2ccc(Cl)cc2)c2ncn([C@@H]3O[C@H](CO)[C@@H](O)[C@H]3O)c2n1 (stereo partly drawn)
// result 223
